Provenance of the data: ChEMBL document CHEMBL4616711

experiment: Clearance in human pooled hepatocytes assessed per million cells at 1 uM measured up to 120 mins by LC-MS/MS analysis; assay type: ADME, cell-based, Hepatocyte; settings: read-out: CLH
Provide the reported hepatocyte CLint at 1 µM of each item.
Numbers only, in µL/min/1e6 cells.

For each of the compounds below, state hepatocyte CLint at 1 µM.
1. COc1ccc(C(=O)N2[C@H](C)CN(C(=O)c3ccc4cc[nH]c4c3)C[C@H]2C)c(F)c1
2. Cc1csc(NC(=O)C2CCN(C(=O)N(C)Cc3ccccc3)CC2)n1

1. 8.7
2. 35
